measured parameter: melting point

Past entries and their recorded results:
| compound | test value |
| --- | --- |
| CC(C)(CO)NS(=O)(=O)c1cccc(NC(=O)c2cnn3c(C4CC4)cc(-c4ccc(C(F)(F)F)cc4)nc23)c1 | 228 to 230 °C |
| CCCS(=O)c1ccc([N+](=O)[O-])c(N)c1 (stereo not drawn) | 128 to 130 °C |
| Cc1nnc(-n2cc(C(=O)N3CCCC3)c3c4cc(F)ccc4n(C)c3c2=O)s1 | 299 to 301 °C |

Would you mind giving melting point for every compound in the list below?
1. O=Cc1cc(O)c(O)c(C=O)c1CCCCC(=O)O
2. CN(C)NC(=O)Nc1cccc2c1C(=O)c1c-2n[nH]c1-c1ccc(N2CCNCC2)cc1
3. CN(C(=O)c1cc2ccccc2c(-c2ccccc2Cl)n1)C1CCCCC1
4. CCOC(=O)C1=C(CCC(OC(=O)c2ccc([N+](=O)[O-])cc2)c2ccccc2)NC(C)=C(C(=O)OC)C1c1cccc([N+](=O)[O-])c1 (stereo not drawn)
5. Cc1ccc(C2=NC(O)(C(F)(F)F)CN2c2ccc(S(C)(=O)=O)cc2)cc1 (stereo not drawn)

Completion:
["148 to 152 °C", "238 °C", "131 °C", "75 to 90 °C", "198 to 199 °C"]
